Values compiled from paper PMC9090415.

- Tgt: P. falciparum apicoplast DNA polymerase (Pf-apPOL) (Plasmodium falciparum)
- Assay Text: Fluorescence-based high-throughput DNA polymerase assay (molecular beacon), primary screen and dose-response
- Type: biochemical
- Measurement Context: DRC-1; 90'; concentration 10
As shown below, each of these compounds has a reported % inhibition Apol 90' value.
Give the value, in units of %, as a plain number.

Some solved entries appear below for comparison.
* O=C1NCCCn2cc(S(=O)(=O)Nc3ccccc3)cc21 | 11.8703
* COc1ccc(-c2n[nH]cc2Oc2ccc(Cl)cc2)c(O)c1 | 39.7229
* O=C(O)CC1SC(c2ccc3c(c2)OCO3)=NC1=O (stereo not shown) | 10.3106
* O=C(O)c1c(F)c(F)c(-c2c(F)c(F)c(C(=O)O)c(F)c2F)c(F)c1F | 14.2426
* O=C(CSc1nc2ccccc2s1)Nc1ncc([N+](=O)[O-])s1 | 42.9699

GET /values?readout=% inhibition Apol 90'&item= CCCCCCCCCCCC1SCC(C(=O)O)N1C(C)=O (stereo not shown)
12.9803

// lookup % inhibition Apol 90' for "O=C1C(=Cc2ccccc2O)Oc2ccc(O)cc21"
10.1306

###

- Tgt: P. falciparum apicoplast DNA polymerase (Pf-apPOL) (Plasmodium falciparum)
- Assay Text: Fluorescence-based high-throughput DNA polymerase assay (molecular beacon), primary screen and dose-response
- Type: biochemical
- Measurement Context: DRC-2; 180'; concentration 20
// reported % inhibition apPOL 180' per item
Field format: number, assumed %, no unit text.

Worked set:
* O=C(O)c1ccc(-c2nc3cc(-c4ccc5nc(-c6ccc(C(=O)O)cc6)[nH]c5c4)ccc3[nH]2)cc1 | 37
* Cc1ccc(C(=O)/C=C/C=C/C=C/N(C)C)o1 | 47

# context switch: different compound, same % inhibition apPOL 180'
Could you tell me which % inhibition apPOL 180' is on file for "O=C(CSc1nnc(-c2ccncc2)[nH]1)c1ccc(O)c(O)c1" ?
68

###

// % inhibition Apo pol 10' lookup, one value per entry
- Tgt: UniProt Q8ILY1
- Assay Text: Fluorescence-based high-throughput DNA polymerase assay (molecular beacon), primary screen and dose-response
- Type: biochemical
- Measurement Context: DRC-1; 10'; concentration 40
Just the number in %, nothing appended.

Examples with answers:
* Cc1ccc(C)n1-c1ccc(C(=O)NNC(=O)c2ccc3nccnc3c2)cc1 | 80.1476
* COc1ccccc1CCC(=O)N1CCc2c(nc3cc(-c4ccccc4)[nH]n3c2=O)C1 | 78

Now for a further molecule.
// lookup % inhibition Apo pol 10' | system=UniProt Q8ILY1 | key= "COc1cc(NC(=O)c2ccccc2)c(OC)cc1NC(=O)Cc1cccs1"
79.6269

###

- Tgt: P. falciparum apicoplast DNA polymerase (Pf-apPOL) (Plasmodium falciparum, UniProt Q8ILY1)
- Sequence (Q8ILY1 entry or part of it): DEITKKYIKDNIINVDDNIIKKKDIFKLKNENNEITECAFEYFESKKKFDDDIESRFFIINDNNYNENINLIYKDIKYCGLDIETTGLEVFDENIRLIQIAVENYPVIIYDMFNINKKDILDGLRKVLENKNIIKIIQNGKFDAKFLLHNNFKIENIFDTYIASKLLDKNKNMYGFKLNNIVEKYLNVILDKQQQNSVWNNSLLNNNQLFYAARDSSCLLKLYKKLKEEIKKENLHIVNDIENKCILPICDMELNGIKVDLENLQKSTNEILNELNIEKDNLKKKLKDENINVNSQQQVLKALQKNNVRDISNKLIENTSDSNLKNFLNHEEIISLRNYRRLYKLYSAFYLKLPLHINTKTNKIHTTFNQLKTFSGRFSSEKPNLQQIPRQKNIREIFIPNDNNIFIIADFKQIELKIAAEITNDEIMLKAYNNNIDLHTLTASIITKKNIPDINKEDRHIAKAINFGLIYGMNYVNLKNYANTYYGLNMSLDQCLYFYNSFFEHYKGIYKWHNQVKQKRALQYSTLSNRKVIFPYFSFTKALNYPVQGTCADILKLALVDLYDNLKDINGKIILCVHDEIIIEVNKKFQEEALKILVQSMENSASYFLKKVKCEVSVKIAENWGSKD
- Assay Text: Fluorescence-based high-throughput DNA polymerase assay (molecular beacon), primary screen and dose-response;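 for % inhibition Apol 40': compound concentration given in µM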
- Format: biochemical
- Measurement Context: DRC-2, 40', concentration 40
Binning scheme for % inhibition Apol 40': Low: < 40%; Medium: ≥ 40% and < 50%; High: ≥ 50%

Examples from the recorded data:
• O=C(O)c1c(F)c(F)c(-c2c(F)c(F)c(C(=O)O)c(F)c2F)c(F)c1F [KU0008974] = Low
• CC1=NNC(=O)C1Oc1ccc(Cl)cc1Cl (stereo not drawn) [KU0265591] = Medium
• CN1CC(=Cc2ccco2)C(=O)C(=Cc2ccco2)C1 [Molecule 65, CN1CC(=Cc2ccco2)C(=O)C(=Cc2ccco2)C1] = High
• O=C(c1c[nH]c2ncccc12)N1CCCCCC1 [Molecule 51, O=C(c1c[nH]c2c1cccn2)N1CCCCCC1] = Medium

// return the class label for O=c1cc(-c2ccccc2)oc2c(O)c(O)ccc12 [Molecule 84, Oc1ccc2c(c1O)oc(cc2=O)c1ccccc1]
Low

Could you tell me which band Oc1ccc(N=Nc2ccccc2)c(O)c1 [Molecule 80, Oc1ccc(c(c1)O)N=Nc1ccccc1] belongs to?
Medium

Looking at O=C(O)CC1=NN(c2cccc([N+](=O)[O-])c2)C(=O)C1 [KU0100531] , which class would you pick?
High

# classify by % inhibition Apol 40' band: Cc1ncc(CSc2nc(C(C)(C)C)cs2)c(CO)c1O [KU0264007]
Medium

Could you tell me which band COc1ccc2c(c1)CCc1c-2nc2ccc(Br)cc2c1C(=O)O [KU0059417] belongs to?
High

# bin lookup: classify COc1ccccc1CCC(=O)N1CCc2c(nc3cc(-c4ccccc4)[nH]n3c2=O)C1 [Molecule 7] by its % inhibition Apol 40'
High

Lab note: which band did O=C(O)CC1SC(c2ccc3c(c2)OCO3)=NC1=O (stereo not drawn) [Molecule 69, OC(=O)CC1SC(=NC1=O)c1ccc2c(c1)OCO2] land in?
Low

Hey, which category is O=C(NNC(=O)C(F)(F)Sc1ccccc1)c1ccsc1 [Molecule 68, O=C(C(Sc1ccccc1)(F)F)NNC(=O)c1cscc1] in, do you know?
Medium
